Data origin: patent US20120164137A1

# tgt: Human FRA on IGROV-1 human ovarian adenocarcinoma cells (human, UniProt P15328 25-234)
# Sequence (P15328 25-234 limits assumed): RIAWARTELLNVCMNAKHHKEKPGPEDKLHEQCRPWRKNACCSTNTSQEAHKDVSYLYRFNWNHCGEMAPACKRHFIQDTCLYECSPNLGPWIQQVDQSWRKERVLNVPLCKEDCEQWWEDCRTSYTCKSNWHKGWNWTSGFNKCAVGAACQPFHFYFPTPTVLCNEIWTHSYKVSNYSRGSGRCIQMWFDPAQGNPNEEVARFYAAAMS
# test: cell-based or functional assay
Entries annotated with measured Internalization IC50
Give the number first and the unit second.

Check out these entries, answers already filled in.
MORAb-003 anti-FRA antibody, lot NB810-13 (high osmolarity; harvested 14 days after initiation of culture) (antibody, human IgG1, kappa, V domains shown, N-linked neutral glycans at Asn299 in SEQ ID NO: 5) VH: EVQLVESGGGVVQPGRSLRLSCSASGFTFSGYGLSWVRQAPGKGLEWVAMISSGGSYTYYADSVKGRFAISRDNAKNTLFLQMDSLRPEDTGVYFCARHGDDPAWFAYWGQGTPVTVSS VL: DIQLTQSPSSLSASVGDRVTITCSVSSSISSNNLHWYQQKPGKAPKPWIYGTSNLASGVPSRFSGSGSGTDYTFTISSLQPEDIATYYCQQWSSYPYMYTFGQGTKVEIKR :: 990 ng/mL
MORAb-003 anti-FRA antibody, lot NB809-69 (10 mM Na butyrate; harvested 13 days after initiation of culture) (antibody, human IgG1, kappa, V domains shown, N-linked neutral glycans at Asn299 in SEQ ID NO: 5) VH: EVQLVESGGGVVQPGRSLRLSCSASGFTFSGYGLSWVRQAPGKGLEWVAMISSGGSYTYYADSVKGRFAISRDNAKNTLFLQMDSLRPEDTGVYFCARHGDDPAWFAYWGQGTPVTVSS VL: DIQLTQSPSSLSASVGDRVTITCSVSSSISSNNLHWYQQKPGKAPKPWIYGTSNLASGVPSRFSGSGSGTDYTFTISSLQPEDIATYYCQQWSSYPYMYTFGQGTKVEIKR :: 24 ng/mL
MORAb-003 anti-FRA antibody, lot NB859-24 (harvested 10 days after initiation of culture) (antibody, human IgG1, kappa, V domains shown, N-linked neutral glycans at Asn299 in SEQ ID NO: 5, also called Day 10 harvest) VH: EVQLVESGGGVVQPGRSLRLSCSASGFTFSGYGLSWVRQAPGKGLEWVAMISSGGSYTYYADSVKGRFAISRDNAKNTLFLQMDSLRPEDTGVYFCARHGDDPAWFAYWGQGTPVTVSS VL: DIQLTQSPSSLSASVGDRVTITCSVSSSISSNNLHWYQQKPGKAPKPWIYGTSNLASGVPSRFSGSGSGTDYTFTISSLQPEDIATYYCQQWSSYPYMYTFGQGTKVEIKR :: 15 ng/mL

Reported Internalization IC50, binder MORAb-003 anti-FRA antibody, lot NB859-26 (harvested 17 days after initiation of culture) (antibody, human IgG1, kappa, V domains shown, N-linked neutral glycans at Asn299 in SEQ ID NO: 5, also called Day 17 harvest) VH: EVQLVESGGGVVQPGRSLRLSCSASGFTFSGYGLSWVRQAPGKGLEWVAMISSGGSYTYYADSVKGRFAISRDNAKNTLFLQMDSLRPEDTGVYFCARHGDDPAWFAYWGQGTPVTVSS VL: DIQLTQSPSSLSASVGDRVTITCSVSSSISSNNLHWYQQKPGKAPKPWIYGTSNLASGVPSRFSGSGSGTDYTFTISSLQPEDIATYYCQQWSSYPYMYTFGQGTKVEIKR : ____
36 ng/mL

Here is the next binder: MORAb-003 anti-FRA antibody, lot NB859-27 (harvested 20 days after initiation of culture) (antibody, human IgG1, kappa, V domains shown, N-linked neutral glycans at Asn299 in SEQ ID NO: 5, also called Day 20 harvest) VH: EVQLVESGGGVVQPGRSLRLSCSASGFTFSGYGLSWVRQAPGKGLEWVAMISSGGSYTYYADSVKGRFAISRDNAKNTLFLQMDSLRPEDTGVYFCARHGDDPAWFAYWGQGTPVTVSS VL: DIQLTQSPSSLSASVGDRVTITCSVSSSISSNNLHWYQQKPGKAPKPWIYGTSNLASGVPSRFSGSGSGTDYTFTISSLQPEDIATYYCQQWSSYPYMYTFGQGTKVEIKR
23 ng/mL

// same read-out, input: MORAb-003 anti-FRA antibody, lot NB810-11 (galactose supplement; harvested 14 days after initiation of culture) (antibody, human IgG1, kappa, V domains shown, N-linked neutral glycans at Asn299 in SEQ ID NO: 5) VH: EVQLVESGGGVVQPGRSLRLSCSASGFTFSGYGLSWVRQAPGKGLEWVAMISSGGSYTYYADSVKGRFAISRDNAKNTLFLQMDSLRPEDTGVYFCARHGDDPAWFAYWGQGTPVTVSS VL: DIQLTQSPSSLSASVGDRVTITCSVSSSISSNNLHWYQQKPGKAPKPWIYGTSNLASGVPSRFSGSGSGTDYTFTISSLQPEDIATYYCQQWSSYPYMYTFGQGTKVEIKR
19 ng/mL

Another binder: MORAb-003 anti-FRA antibody, lot NB859-25 (harvested 14 days after initiation of culture) (antibody, human IgG1, kappa, V domains shown, N-linked neutral glycans at Asn299 in SEQ ID NO: 5, also called Day 14 harvest; positive control (round 3)) VH: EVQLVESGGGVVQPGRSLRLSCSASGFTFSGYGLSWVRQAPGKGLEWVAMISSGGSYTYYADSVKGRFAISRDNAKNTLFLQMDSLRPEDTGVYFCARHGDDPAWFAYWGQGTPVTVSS VL: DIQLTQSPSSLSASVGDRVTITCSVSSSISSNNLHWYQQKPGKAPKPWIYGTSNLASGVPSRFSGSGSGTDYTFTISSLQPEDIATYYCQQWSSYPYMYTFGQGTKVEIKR
32 ng/mL
